- System: LK-2
- Assay protocol: relative viability (nuclei count vs DMSO), 5 days (fraction); higher = more cells survive
- Test settings: first compound 0.3162 µM
I'd appreciate it if you marked entries TRUE when relative viability is lower than 0.8 and FALSE when it is not.

Lookup: Hello, is relative viability of the following molecule strictly smaller than 0.8? NC(=O)Nc1cc(-c2cccc(F)c2)sc1C(=O)N[C@H]1CCCNC1 [AZD7762] + CS(=O)(=O)CCNCc1ccc(-c2ccc3ncnc(Nc4ccc(OCc5cccc(F)c5)c(Cl)c4)c3c2)o1 [Lapatinib] (partner 2 µM)
Found: FALSE

Lookup: Repeat for the following molecule: NC(=O)Nc1cc(-c2cccc(F)c2)sc1C(=O)N[C@H]1CCCNC1 [AZD7762] + CC(=O)c1c(C)c2cnc(Nc3ccc(N4CCNCC4)cn3)nc2n(C2CCCC2)c1=O [Palbociclib] (partner 0.5 µM)
Found: TRUE

Lookup: Repeat for the following molecule: NC(=O)Nc1cc(-c2cccc(F)c2)sc1C(=O)N[C@H]1CCCNC1 [AZD7762] + CC(=O)Nc1cccc(-n2c(=O)n(C3CC3)c(=O)c3c(Nc4ccc(I)cc4F)n(C)c(=O)c(C)c32)c1 [Trametinib] (partner 0.02 µM)
Found: TRUE

Lookup: Repeat for the following molecule: NC(=O)Nc1cc(-c2cccc(F)c2)sc1C(=O)N[C@H]1CCCNC1 [AZD7762] + Cc1nc(Nc2ncc(C(=O)Nc3c(C)cccc3Cl)s2)cc(N2CCN(CCO)CC2)n1 [Dasatinib] (partner 0.075 µM)
Found: TRUE

Lookup: Repeat for the following molecule: NC(=O)Nc1cc(-c2cccc(F)c2)sc1C(=O)N[C@H]1CCCNC1 [AZD7762] + O=C(CCCCCCC(=O)Nc1ccccc1)NO [Vorinostat] (partner 1 µM)
Found: TRUE

Lookup: Repeat for the following molecule: NC(=O)Nc1cc(-c2cccc(F)c2)sc1C(=O)N[C@H]1CCCNC1 [AZD7762] + CC1(C)CCC(c2ccc(Cl)cc2)=C(CN2CCN(c3ccc(C(=O)NS(=O)(=O)c4ccc(N[C@H](CCN5CCOCC5)CSc5ccccc5)c(S(=O)(=O)C(F)(F)F)c4)cc3)CC2)C1 [Navitoclax] (partner 0.5 µM)
Found: TRUE

Lookup: Repeat for the following molecule: NC(=O)Nc1cc(-c2cccc(F)c2)sc1C(=O)N[C@H]1CCCNC1 [AZD7762] + Cc1nc(NC(=O)N2CCC[C@H]2C(N)=O)sc1-c1ccnc(C(C)(C)C(F)(F)F)c1 [Alpelisib] (partner 2 µM)
Found: FALSE
